# PROCEDURE DETAILS: Acute toxicity (LD50), i.p., method of Litchfield and Wilcoxon
# RUN CONDITIONS: mouse, in vivo, ip; I.C.R. Swiss mice, both sexes, 30 ± 2 g, intraperitoneal
# Experimental: Acute toxicity studies were conducted in I.C.R. Swiss mice weighing 30 ± 2 g, of both sexes. The products were administered intraperitoneally (i.p.). The acute toxicity calculations were made by the method of Litchfield and Wilcoxon.
MEASURED METRIC: LD50 (mg/kg)
Numbers only; they are read as mg/kg.

Data request: Could you tell me which LD50 is on file for COc1cc(C[N+]2(C)CCC(C)=C(C)C2)cc(OC)c1OC.[Cl-] (stereo not shown) ?
Data returned: 77
